- TEST_SUMMARY: Toxicity in NSG/ICR mouse assessed as survival at 200 mg/kg, ip administered once daily for 5 days
- Type: organism-based
- CONDITION_NOTES: NSG/ICR, in vivo, dose 200 mg/kg/day, time 5 day
METRIC_NAME: survival at 120 h (%)
Provide only the numeric value, understood in %.

// sample CCOC(=O)c1cnn(-c2ccc(NC(=O)C(Cl)=C(Cl)Cl)cc2)c1C(F)(F)F , its survival at 120 h was 80

###

- ASSAYED_TARGET: Short transient receptor potential channel 3 (Homo sapiens)
- Sequence (Q13507 whole entry): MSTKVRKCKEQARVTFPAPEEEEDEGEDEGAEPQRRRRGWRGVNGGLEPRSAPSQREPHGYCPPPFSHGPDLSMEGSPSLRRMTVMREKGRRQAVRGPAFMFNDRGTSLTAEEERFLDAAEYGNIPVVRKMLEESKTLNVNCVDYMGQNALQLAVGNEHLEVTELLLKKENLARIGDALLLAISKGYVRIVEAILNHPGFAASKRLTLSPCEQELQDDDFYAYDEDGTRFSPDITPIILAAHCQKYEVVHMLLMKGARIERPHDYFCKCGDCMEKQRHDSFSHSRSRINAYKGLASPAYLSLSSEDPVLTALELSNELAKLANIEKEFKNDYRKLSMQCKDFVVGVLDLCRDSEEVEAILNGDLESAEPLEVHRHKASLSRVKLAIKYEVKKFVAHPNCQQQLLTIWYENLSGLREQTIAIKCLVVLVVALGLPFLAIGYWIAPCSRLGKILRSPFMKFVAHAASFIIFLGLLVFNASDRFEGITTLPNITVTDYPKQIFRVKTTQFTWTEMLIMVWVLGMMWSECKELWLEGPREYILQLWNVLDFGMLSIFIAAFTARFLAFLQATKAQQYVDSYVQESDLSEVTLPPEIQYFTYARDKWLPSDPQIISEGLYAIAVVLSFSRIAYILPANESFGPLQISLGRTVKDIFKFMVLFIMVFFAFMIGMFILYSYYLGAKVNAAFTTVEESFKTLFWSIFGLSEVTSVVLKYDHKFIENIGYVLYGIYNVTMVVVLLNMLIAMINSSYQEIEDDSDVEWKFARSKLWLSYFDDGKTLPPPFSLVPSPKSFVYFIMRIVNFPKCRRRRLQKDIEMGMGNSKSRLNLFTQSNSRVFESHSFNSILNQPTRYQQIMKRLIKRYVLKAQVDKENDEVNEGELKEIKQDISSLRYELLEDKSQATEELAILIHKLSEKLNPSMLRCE
- TEST_SUMMARY: Inhibition of human TRPC3 expressed in HEK293 cells assessed as inhibition of GSK170-induced current in presence of 2 mM extracellular calcium by whole cell patch-clamp method
- Format: cell-based
Listed next: entries and their corresponding IC50.
Provide only the numeric value, understood in nM.

smiles_string=CCOC(=O)c1cnn(-c2ccc(NC(=O)C(Cl)=C(Cl)Cl)cc2)c1C(F)(F)F assayed_target="Short transient receptor potential channel 3 (Homo sapiens)" metric_name=IC50 assay_value=470

Query compound follows.
// sample CCNC(=O)c1cnn(-c2ccc(-n3ccc(Cl)c(Cl)c3=O)cc2)c1C(F)(F)F , its IC50 was 430

###

- ASSAYED_TARGET: Short transient receptor potential channel 3 (Mus musculus, UniProt Q9QZC1)
- Sequence (Q9QZC1 whole entry): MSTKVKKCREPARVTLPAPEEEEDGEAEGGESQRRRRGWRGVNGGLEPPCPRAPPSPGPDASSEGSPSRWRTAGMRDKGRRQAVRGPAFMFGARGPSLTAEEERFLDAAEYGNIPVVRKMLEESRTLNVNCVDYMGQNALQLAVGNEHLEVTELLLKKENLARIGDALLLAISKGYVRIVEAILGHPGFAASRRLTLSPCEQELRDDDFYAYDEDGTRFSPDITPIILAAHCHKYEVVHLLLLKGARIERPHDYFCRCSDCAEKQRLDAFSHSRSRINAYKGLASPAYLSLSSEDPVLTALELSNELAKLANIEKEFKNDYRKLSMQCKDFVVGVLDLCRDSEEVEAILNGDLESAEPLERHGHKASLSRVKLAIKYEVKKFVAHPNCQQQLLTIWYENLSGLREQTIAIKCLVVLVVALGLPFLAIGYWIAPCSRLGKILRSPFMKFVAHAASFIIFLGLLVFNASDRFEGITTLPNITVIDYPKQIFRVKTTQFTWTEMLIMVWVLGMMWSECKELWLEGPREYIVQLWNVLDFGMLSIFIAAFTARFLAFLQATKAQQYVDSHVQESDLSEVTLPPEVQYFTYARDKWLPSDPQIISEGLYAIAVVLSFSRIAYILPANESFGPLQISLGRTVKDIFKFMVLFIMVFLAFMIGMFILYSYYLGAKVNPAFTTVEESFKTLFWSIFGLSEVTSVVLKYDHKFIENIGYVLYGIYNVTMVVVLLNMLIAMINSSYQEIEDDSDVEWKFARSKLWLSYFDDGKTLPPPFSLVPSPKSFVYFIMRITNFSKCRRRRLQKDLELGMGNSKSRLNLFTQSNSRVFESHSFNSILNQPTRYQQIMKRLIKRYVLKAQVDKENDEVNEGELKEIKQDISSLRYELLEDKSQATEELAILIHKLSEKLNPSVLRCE
- TEST_SUMMARY: Inhibition of mouse TRPC3 expressed in HEK293 cells assessed as inhibition of Ca2+ influx by whole cell patch-clamp method
METRIC_NAME: pIC50
The meaning of pIC50 here: minus log10 of the concentration in molar units.

// sample CCOC(=O)c1cnn(-c2ccc(NC(=O)C(Cl)=C(Cl)Cl)cc2)c1C(F)(F)F , its pIC50 was 6.15

###

- ASSAYED_TARGET: Short transient receptor potential channel 3 (Homo sapiens) (UniProt Q13507)
- Sequence (Q13507 whole entry): as the sequence (Q13507 whole entry) above
- TEST_SUMMARY: Inhibition of human TRPC3 expressed in HEK293 cells assessed as inhibition of GSK170-induced current at 10 uM in absence of extracellular calcium by whole cell patch-clamp method relative to control
- Format: cell-based
Calls of active or inactive are those of the source. The calls are words filed in the database; no cut-off is given here.
METRIC_NAME: inhibition

Example entries begin here.
smiles_string=CCOC(=O)c1cnn(-c2ccc(NC(=O)C(Cl)=C(Cl)Cl)cc2)c1C(F)(F)F assayed_target="Short transient receptor potential channel 3 (Homo sapiens) (UniProt Q13507)" assay_value=91%
smiles_string=CCNC(=O)c1cnn(-c2ccc(-n3ccc(Cl)c(F)c3=O)cc2)c1C(F)(F)F assayed_target="Short transient receptor potential channel 3 (Homo sapiens) (UniProt Q13507)" assay_value=inactive
smiles_string=CCNC(=O)c1cnn(-c2ccc(-n3ccc(Cl)c(Cl)c3=O)cc2)c1C(F)(F)F assayed_target="Short transient receptor potential channel 3 (Homo sapiens) (UniProt Q13507)" assay_value=89%
smiles_string=CCNC(=O)c1cnn(-c2ccc(-n3ccc(Cl)cc3=O)cc2)c1C(F)(F)F assayed_target="Short transient receptor potential channel 3 (Homo sapiens) (UniProt Q13507)" assay_value=84%
smiles_string=CCOC(=O)c1cnn(-c2ccc(-n3ccc(Cl)cc3=O)cc2)c1C(F)(F)F assayed_target="Short transient receptor potential channel 3 (Homo sapiens) (UniProt Q13507)" assay_value=71%

// sample CCNS(=O)(=O)c1cnn(-c2ccc(-n3ccc(Cl)c(Cl)c3=O)cc2)c1C(F)(F)F , its inhibition was inactive

// sample CCOC(=O)c1cnn(-c2ccc(-n3cc(Cl)ccc3=O)cc2)c1C(F)(F)F , its inhibition was inactive

// sample CCOC(=O)c1cnn(-c2ccc(-n3cc(Cl)cc(Cl)c3=O)cc2)c1C(F)(F)F , its inhibition was inactive

// sample CCOC(=O)c1cnn(-c2ccc(-n3ccccc3=O)cc2)c1C(F)(F)F , its inhibition was inactive

Numbers sourced from ChEMBL document CHEMBL4706728.
